# assayedSystem: T1, IL-1R of pig (piglet pial vessels; porcine endothelial cells) (porcine (piglet), UniProt A0A5G2QSI4 18-572)
# T1 sequence: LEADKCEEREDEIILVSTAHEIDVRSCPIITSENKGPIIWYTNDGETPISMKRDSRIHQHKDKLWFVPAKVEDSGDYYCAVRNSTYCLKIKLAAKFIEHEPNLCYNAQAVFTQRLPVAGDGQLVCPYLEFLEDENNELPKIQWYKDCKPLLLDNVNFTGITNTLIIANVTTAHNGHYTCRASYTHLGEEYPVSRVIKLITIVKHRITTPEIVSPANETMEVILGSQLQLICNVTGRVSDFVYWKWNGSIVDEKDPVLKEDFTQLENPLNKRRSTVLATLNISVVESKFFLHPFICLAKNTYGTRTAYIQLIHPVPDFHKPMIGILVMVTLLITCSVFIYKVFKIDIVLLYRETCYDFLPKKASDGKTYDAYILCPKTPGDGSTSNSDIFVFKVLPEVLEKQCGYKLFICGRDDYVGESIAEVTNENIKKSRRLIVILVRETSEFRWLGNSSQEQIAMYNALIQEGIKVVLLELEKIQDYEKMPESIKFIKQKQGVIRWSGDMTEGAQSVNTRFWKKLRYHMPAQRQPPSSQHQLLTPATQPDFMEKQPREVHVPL
# test: cell-based or functional assay
Where no end group is shown, it is not given here. [ ]: non-standard residue; d: D form.
resultType: Emax (%), IL-1β-induced PGE2 synthesis in endothelial cells (porcine)

Known Emax (%), IL-1β-induced PGE2 synthesis in endothelial cells (porcine) results, listed for orientation:
Give the reported Emax (%), IL-1β-induced PGE2 synthesis in endothelial cells (porcine) for this binder. [dK][dY][dT][dP][dE][dL][dA] [API-101.114]
50

For the binder [dR][dY][dT][dP][dD][dL][dA] [API-101.117] , give its measured Emax (%), IL-1β-induced PGE2 synthesis in endothelial cells (porcine) value.
100

a: [dR][dY][dT][dP][dE][dL] [API-101.113]
b: [dR][dW][dT][dP][dE][dL][dA] [API-101.116]
Name the one with the greater Emax (%), IL-1β-induced PGE2 synthesis in endothelial cells (porcine) value, either a or b as given. Provide the label of your selected option as the answer.
a
(a: 80%, b: 45%)
